test system: Klebsiella aerogenes DSM 30053; assay: fold change of Cadaverine concentration vs plate DMSO controls (fold change (ratio)); higher = more amine produced, active = hit call of the paper (significant change in both replicates, either direction); settings: incubation time: 27 h, anaerobic, 37 °C
Structures can show the parent of a compound that is named as a salt.
Parameter Measured: fold change of Cadaverine concentration
Just the number, please, no unit attached.

Q: Notebook entry, Klebsiella aerogenes DSM 30053 assay: fold change of Cadaverine concentration of Clc1ccc(COC(Cn2ccnc2)c2ccc(Cl)cc2Cl)cc1 (stereo unspecified) [Econazole nitrate] (20 µM) = ?
Ans: 1.01

Q: Notebook entry, Klebsiella aerogenes DSM 30053 assay: fold change of Cadaverine concentration of CCCC(=O)Nc1ncnc2c1ncn2[C@@H]1O[C@@H]2COP(=O)(O)O[C@H]2[C@H]1OC(=O)CCC [Bucladesine sodium salt] (20 µM) = ?
Ans: 1.01

Q: Notebook entry, Klebsiella aerogenes DSM 30053 assay: fold change of Cadaverine concentration of CC1(C)O[C@@H]2C[C@H]3[C@@H]4C[C@H](F)C5=CC(=O)C=C[C@]5(C)[C@H]4[C@@H](O)C[C@]3(C)[C@]2(C(=O)CO)O1 [Flunisolide] (20 µM) = ?
Ans: 1.09

Q: Notebook entry, Klebsiella aerogenes DSM 30053 assay: fold change of Cadaverine concentration of CC[C@@H]1C(=O)OC[C@@H]1Cc1cncn1C [Pilocarpine nitrate] (20 µM) = ?
Ans: 0.993

Q: Notebook entry, Klebsiella aerogenes DSM 30053 assay: fold change of Cadaverine concentration of NS(=O)(=O)c1cc(C2(O)NC(=O)c3ccccc32)ccc1Cl (stereo unspecified) [Chlorthalidone] (20 µM) = ?
Ans: 0.983

Q: Notebook entry, Klebsiella aerogenes DSM 30053 assay: fold change of Cadaverine concentration of OC[C@H]1O[C@@](CO)(OC[C@@]2(OC[C@@]3(O[C@H]4O[C@H](CO)[C@@H](O)[C@H](O)[C@H]4O)O[C@H](CO)[C@@H](O)[C@@H]3O)O[C@H](CO)[C@@H](O)[C@@H]2O)[C@@H](O)[C@@H]1O [Nystose] (50 µM) = ?
Ans: 0.995

----------
test system: Klebsiella aerogenes DSM 30053; test: fold change of Cadaverine concentration vs plate DMSO controls (fold change (ratio)); higher = more amine produced, active = hit call of the paper (significant change in both replicates, either direction); details: incubation time: 27 h, anaerobic, 37 °C
Kindly state fold change of Cadaverine concentration for each of the entries shown.
Just the number, please, no unit attached.

Q: I'd like to know its fold change of Cadaverine concentration. The compound in question is CCOc1ccc2nc3cc(N)ccc3c(N)c2c1 [Ethacridine lactate] (20 µM)
Ans: 0.993

Q: I'd like to know its fold change of Cadaverine concentration. The compound in question is CC(=O)OCC(=O)[C@@]1(O)CC[C@H]2[C@@H]3CCC4=CC(=O)C=C[C@]4(C)[C@@]3(F)[C@@H](O)C[C@@]21C [Isoflupredone acetate] (20 µM)
Ans: 1.11

Q: I'd like to know its fold change of Cadaverine concentration. The compound in question is CCCOc1ccccc1-c1nc2[nH]nnc2c(=O)[nH]1 [Zaprinast] (20 µM)
Ans: 1

Q: I'd like to know its fold change of Cadaverine concentration. The compound in question is O=C(CO)[C@@H](O)[C@@H](O)[C@H](O)CO [D-Tagatose] (50 µM)
Ans: 1.03
